Values were extracted from patent US20140294898A1.

Target: T1, human PD-L1 (human, UniProt Q9NZQ7 19-239, limits assumed)
T1 construct: also called Hu PD-L1; hPD-L1
T1 sequence (Q9NZQ7 19-239 limits assumed): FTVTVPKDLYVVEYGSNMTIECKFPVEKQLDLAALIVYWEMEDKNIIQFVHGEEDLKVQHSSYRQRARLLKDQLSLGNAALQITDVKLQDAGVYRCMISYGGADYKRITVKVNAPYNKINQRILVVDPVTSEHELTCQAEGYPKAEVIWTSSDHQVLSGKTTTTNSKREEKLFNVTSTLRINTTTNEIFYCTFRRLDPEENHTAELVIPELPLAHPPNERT
Assay: cell binding assay, inhibition of Hu PD-L1/PD-1 binding
pIC50: −log10 of the molar value. Positions of bridges follow the written chain, without caps; N, C: chain ends. Non-standard residues stand in square brackets, D forms with d. Phe(4-F) = N[C@@H](Cc1ccc(F)cc1)C(=O)O; 2Nal = N[C@@H](Cc1ccc2ccccc2c1)C(=O)O; NMeNle = CCCC[C@H](NC)C(=O)O; NMeA = CN[C@@H](C)C(=O)O; Sar = CNCC(=O)O

{"binder": "{CH2CO}-F[NMeA]NPHLHWSW[NMeNle][NMeNle]RCG-NH2 (thioether N-14; SMILES CCCC[C@H]1C(=O)N(C)[C@@H](CCCC)C(=O)N[C@@H](CCCNC(=N)N)C(=O)N[C@H](C(=O)NCC(N)=O)CSCC(=O)N[C@@H](Cc2ccccc2)C(=O)N(C)[C@@H](C)C(=O)N[C@@H](CC(N)=O)C(=O)N2CCC[C@H]2C(=O)N[C@@H](Cc2c[nH]cn2)C(=O)N[C@@H](CC(C)C)C(=O)N[C@@H](Cc2c[nH]cn2)C(=O)N[C@@H](Cc2c[nH]c3ccccc23)C(=O)N[C@@H](CO)C(=O)N[C@@H](Cc2c[nH]c3ccccc23)C(=O)N1C, macrocyclic peptide, Formula I series; also called Compound 53) [Compound No. 53]", "pIC50": 7.33}
{"binder": "FANPHLXWSWXXRCG (ClAc on N-terminus cyclized as thioether with Cys14; mAla (N-methyl-Ala) at 2; Dab (2,4-diaminobutyric acid, written X) at 7; mNle (N-methyl-norleucine, written X) at 11 and 12; C-terminal NH2, macrocyclic peptide, Formula I series; also called Compound 52) [Compound No. 52]", "pIC50": 6.97}
{"binder": "{CH2CO}-[Phe(4-F)][NMeA]NPHL[Sar]WSW[NMeNle][NMeNle]RCG-NH2 (thioether N-14; SMILES CCCC[C@H]1C(=O)N(C)[C@@H](CCCC)C(=O)N[C@@H](CCCNC(=N)N)C(=O)N[C@H](C(=O)NCC(N)=O)CSCC(=O)N[C@@H](Cc2ccc(F)cc2)C(=O)N(C)[C@@H](C)C(=O)N[C@@H](CC(N)=O)C(=O)N2CCC[C@H]2C(=O)N[C@@H](Cc2c[nH]cn2)C(=O)N[C@@H](CC(C)C)C(=O)N(C)CC(=O)N[C@@H](Cc2c[nH]c3ccccc23)C(=O)N[C@@H](CO)C(=O)N[C@@H](Cc2c[nH]c3ccccc23)C(=O)N1C, macrocyclic peptide, Formula I series; also called Compound 32) [Compound No. 32]", "pIC50": 7.60}
{"binder": "{CH2CO}-[2Nal][NMeA]NPHL[Sar]WSW[NMeNle][NMeNle]RCG-NH2 (thioether N-14; SMILES CCCC[C@H]1C(=O)N(C)[C@@H](CCCC)C(=O)N[C@@H](CCCNC(=N)N)C(=O)N[C@H](C(=O)NCC(N)=O)CSCC(=O)N[C@@H](Cc2ccc3ccccc3c2)C(=O)N(C)[C@@H](C)C(=O)N[C@@H](CC(N)=O)C(=O)N2CCC[C@H]2C(=O)N[C@@H](Cc2c[nH]cn2)C(=O)N[C@@H](CC(C)C)C(=O)N(C)CC(=O)N[C@@H](Cc2c[nH]c3ccccc23)C(=O)N[C@@H](CO)C(=O)N[C@@H](Cc2c[nH]c3ccccc23)C(=O)N1C, macrocyclic peptide, Formula I series; also called Compound 26) [Compound No. 26]", "pIC50": 7.89}
{"binder": "{CH2CO}-F[NMeA]NPHL[Sar]WAW[NMeNle][NMeNle]RCG-NH2 (thioether N-14; SMILES CCCC[C@H]1C(=O)N(C)[C@@H](CCCC)C(=O)N[C@@H](CCCNC(=N)N)C(=O)N[C@H](C(=O)NCC(N)=O)CSCC(=O)N[C@@H](Cc2ccccc2)C(=O)N(C)[C@@H](C)C(=O)N[C@@H](CC(N)=O)C(=O)N2CCC[C@H]2C(=O)N[C@@H](Cc2c[nH]cn2)C(=O)N[C@@H](CC(C)C)C(=O)N(C)CC(=O)N[C@@H](Cc2c[nH]c3ccccc23)C(=O)N[C@@H](C)C(=O)N[C@@H](Cc2c[nH]c3ccccc23)C(=O)N1C, macrocyclic peptide, Formula I series; also called Compound 16) [Compound No. 16]", "pIC50": 7.89}
